Hello, the source for this data is paper PMC6219668, in case you need it.

Test system: panel of nearly 500 cancer cell lines
assayProcedure: Cancer Cell Line Encyclopedia profiling, 3-day CellTiter-Glo
Format: cell-based
measurementParameters: ncih211 (lung); read-out: IC50
pIC50: −log10 of the molar value.
quantity: pIC50

query: Fill in: pIC50 of `CC(=O)c1c(C)c2cnc(Nc3ccc(N4CCNCC4)cn3)nc2n(C2CCCC2)c1=O` is ___
result: < 5.10

###

EC50 for assorted molecules
System: panel of nearly 500 cancer cell lines
assayProcedure: Cancer Cell Line Encyclopedia profiling, 3-day CellTiter-Glo
Type: cell-based
measurementParameters: Homo sapiens, NCI-H23

[
  {
    "molecule": "CC(=O)c1c(C)c2cnc(Nc3ccc(N4CCNCC4)cn3)nc2n(C2CCCC2)c1=O [Palbociclib, reference compound]",
    "testedOn": "panel of nearly 500 cancer cell lines",
    "EC50": "> 8 µM"
  }
]

Now for a further molecule.
query: Given the entry CN(C)C(=O)c1cc2cnc(Nc3ccc(N4CCNCC4)cn3)nc2n1C1CCCC1 [Ribociclib] , report its measured EC50.
result: > 8 µM
